Test system: SKOV-3
Assay: Cytotoxicity test (MTT, 72 h)
Conditions: Homo sapiens, SK-OV-3, 72 h, read-out: 50% Inhibiting Concentration value (IC50)
Counter-ions that a name gives are not always drawn.
Readout Label: log10 IC50 (log10 of the value in µM)
Note: values are log10 of IC50 expressed in µM.

Record excerpt, results attached:
Query: Fill in reported log10 IC50 for this entry: CCc1c2c(nc3ccc(OC(=O)NCCOCc4cn([C@H]5O[C@@H](CO)[C@H](O)[C@@H](O)[C@@H]5O)nn4)cc13)-c1cc3c(c(=O)n1C2)COC(=O)[C@]3(O)CC [Compound 66]
Response: 0.29

Query: Report log10 IC50, nothing else, for this compound: CCc1c2c(nc3ccc(OC(=O)OCCOCCOCCOCCOCc4cn(CCO[C@H]5O[C@@H](CO)[C@H](O)[C@@H](O)[C@@H]5O)nn4)cc13)-c1cc3c(c(=O)n1C2)COC(=O)[C@]3(O)CC [Compound 59]
Response: 0.52

Query: Quickly give me recorded log10 IC50 for CCc1c2c(nc3ccc(OC(=O)OCCOCCOCc4cn(CCO[C@H]5O[C@@H](CO)[C@H](O)[C@@H](O)[C@@H]5O)nn4)cc13)-c1cc3c(c(=O)n1C2)COC(=O)[C@]3(O)CC [Compound 57]
Response: 0.79

Would you mind giving log10 IC50 for every compound in the list below?
1. CCc1c2c(nc3ccc(OC(=O)NCCCOCc4cn(CCO[C@H]5O[C@@H](CO)[C@H](O)[C@@H](O)[C@@H]5O)nn4)cc13)-c1cc3c(c(=O)n1C2)COC(=O)[C@]3(O)CC [Compound 81]
2. CCc1c2c(nc3ccc(OC(=O)NCCOCc4cn(CCO[C@H]5O[C@@H](CO)[C@H](O)[C@@H](O)[C@@H]5O)nn4)cc13)-c1cc3c(c(=O)n1C2)COC(=O)[C@]3(O)CC [Compound 67]
3. CCc1c2c(nc3ccc(OC(=O)N4CCC(N5CCCCC5)CC4)cc13)-c1cc3c(c(=O)n1C2)COC(=O)[C@]3(O)CC [CPT-11, Irinotecan hydrochloride, reference compound]
4. CCc1c2c(nc3ccc(OC(=O)NCCOCCOCc4cn(CCO[C@H]5O[C@@H](CO)[C@H](O)[C@@H](O)[C@@H]5O)nn4)cc13)-c1cc3c(c(=O)n1C2)COC(=O)C3(O)CC (stereo partly drawn) [Compound 74]

Response:
0.88
0.10
1.22
0.88

Please look at the items below and tell me log10 IC50 for each one, in order.
1. CCc1c2c(nc3ccc(OC(=O)NCCOCCOCc4cn([C@H]5O[C@@H](CO)[C@H](O)[C@@H](O)[C@@H]5O)nn4)cc13)-c1cc3c(c(=O)n1C2)COC(=O)[C@]3(O)CC [Compound 73]
2. CCc1c2c(nc3ccc(OC(=O)NCCCCCOCc4cn(CCO[C@H]5O[C@@H](CO)[C@H](O)[C@@H](O)[C@@H]5O)nn4)cc13)-c1cc3c(c(=O)n1C2)COC(=O)[C@]3(O)CC [Compound 88]
3. CCc1c2c(nc3ccc(OC(=O)OCCOCCOCCOCc4cn([C@H]5O[C@@H](CO)[C@H](O)[C@@H](O)[C@@H]5O)nn4)cc13)-c1cc3c(c(=O)n1C2)COC(=O)[C@]3(O)CC [Compound 52]
4. CCc1c2c(nc3ccc(OC(=O)OCCOCCOCCOCc4cn(CCO[C@H]5O[C@@H](CO)[C@H](O)[C@@H](O)[C@@H]5O)nn4)cc13)-c1cc3c(c(=O)n1C2)COC(=O)[C@]3(O)CC [Compound 58]

Response:
0.46
0.87
0.99
-0.12

Query: Tell me measured log10 IC50 for CCc1c2c(nc3ccc(OC(=O)OCCOCc4cn(CCO[C@H]5O[C@@H](CO)[C@H](O)[C@@H](O)[C@@H]5O)nn4)cc13)-c1cc3c(c(=O)n1C2)COC(=O)[C@]3(O)CC [Compound 56] please.
Response: 1.09

----------
Test: Solubility test, equilibrium method, UV-visible spectrophotometry
Format: physicochemical
Conditions: 0.1% aqueous solution of Tween-80, aqueous with cosolvent or surfactant or cyclodextrin, thermodynamic from solid; read-out: Solubility in 0.1% Tween-80
Structures can show the parent of a compound that is named as a salt.
Readout Label: solubility

Query: Return solubility for the following compound: CCc1c2c(nc3ccc(OC(=O)N4CCC(N5CCCCC5)CC4)cc13)-c1cc3c(c(=O)n1C2)COC(=O)[C@]3(O)CC [CPT-11, Irinotecan hydrochloride, reference compound]
Response: 597 µg/mL

----------
Could you please report measured solubility for the items listed next?
Test: Solubility test, equilibrium method, UV-visible spectrophotometry
Assay type: physicochemical
Details: aqueous buffer, thermodynamic from solid; PBS pH 7.4; read-out: Solubility in PBS (pH = 7.4)
Structures can show the parent of a compound that is named as a salt.
Give bare numbers, in µg/mL.

Query: Query solubility for CCc1c2c(nc3ccc(OC(=O)NCCOCCOCc4cn(CCO[C@H]5O[C@@H](CO)[C@H](O)[C@@H](O)[C@@H]5O)nn4)cc13)-c1cc3c(c(=O)n1C2)COC(=O)C3(O)CC (stereo partly drawn)
Response: 565

Query: For "CCc1c2c(nc3ccc(OC(=O)NCCOCc4cn(CCO[C@H]5O[C@@H](CO)[C@H](O)[C@@H](O)[C@@H]5O)nn4)cc13)-c1cc3c(c(=O)n1C2)COC(=O)[C@]3(O)CC" , write its solubility.
Response: 2110

Query: Quote solubility reported for "CCc1c2c(nc3ccc(OC(=O)NCCCOCc4cn(CCO[C@H]5O[C@@H](CO)[C@H](O)[C@@H](O)[C@@H]5O)nn4)cc13)-c1cc3c(c(=O)n1C2)COC(=O)[C@]3(O)CC" please.
Response: 895

Query: Please list solubility recorded for the molecule CCc1c2c(nc3ccc(OC(=O)N4CCC(N5CCCCC5)CC4)cc13)-c1cc3c(c(=O)n1C2)COC(=O)[C@]3(O)CC [CPT-11, Irinotecan hydrochloride, reference compound]
Response: 843

Batch lookup, solubility per entry.
1. CCc1c2c(nc3ccc(OC(=O)NCCCCCOCc4cn([C@H]5O[C@@H](CO)[C@H](O)[C@@H](O)[C@@H]5O)nn4)cc13)-c1cc3c(c(=O)n1C2)COC(=O)[C@]3(O)CC
2. CCc1c2c(nc3ccc(OC(=O)NCCCCCOCc4cn(CCO[C@H]5O[C@@H](CO)[C@H](O)[C@@H](O)[C@@H]5O)nn4)cc13)-c1cc3c(c(=O)n1C2)COC(=O)[C@]3(O)CC
3. CCc1c2c(nc3ccc(OC(=O)NCCOCCOCc4cn([C@H]5O[C@@H](CO)[C@H](O)[C@@H](O)[C@@H]5O)nn4)cc13)-c1cc3c(c(=O)n1C2)COC(=O)[C@]3(O)CC
4. CCc1c2c(nc3ccc(OC(=O)NCCOCc4cn([C@H]5O[C@@H](CO)[C@H](O)[C@@H](O)[C@@H]5O)nn4)cc13)-c1cc3c(c(=O)n1C2)COC(=O)[C@]3(O)CC
5. CCc1c2c(nc3ccc(OC(=O)NCCCOCc4cn([C@H]5O[C@@H](CO)[C@H](O)[C@@H](O)[C@@H]5O)nn4)cc13)-c1cc3c(c(=O)n1C2)COC(=O)[C@]3(O)CC

Response:
[910, 895, 414, 2880, 792]

----------
Experiment: Solubility test, equilibrium method, UV-visible spectrophotometry
Format: physicochemical
Conditions: saline or isotonic, thermodynamic from solid
Think of 1000 µg/mL as a floor: if solubility stands on it or above, it is condition met; beneath it, condition not met.

Sample answers from the record:
Query: Given the entry CCc1c2c(nc3ccc(OC(=O)OCCOCCOCCOCCOCc4cn([C@H]5O[C@@H](CO)[C@H](O)[C@@H](O)[C@@H]5O)nn4)cc13)-c1cc3c(c(=O)n1C2)COC(=O)[C@]3(O)CC [Compound 42] , answer whether its solubility meets or surpasses 1000 µg/mL.
Response: condition met

Query: Quick check, solubility >= 1000 µg/mL? CCc1c2c(nc3ccc(OC(=O)OCCOCCOCCOCc4cn([C@H]5O[C@@H](CO)[C@H](O)[C@@H](O)[C@@H]5O)nn4)cc13)-c1cc3c(c(=O)n1C2)COC(=O)[C@]3(O)CC [Compound 52]
Response: condition not met

New cases:
Query: Quick check, solubility >= 1000 µg/mL? CCc1c2c(nc3ccc(OC(=O)OCCOCc4cn([C@H]5O[C@@H](CO)[C@H](O)[C@@H](O)[C@@H]5O)nn4)cc13)-c1cc3c(c(=O)n1C2)COC(=O)[C@]3(O)CC [Compound 37]
Response: condition not met

Query: Say whether CCc1c2c(nc3ccc(OC(=O)OCCOCCOCc4cn(CCO[C@H]5O[C@@H](CO)[C@H](O)[C@@H](O)[C@@H]5O)nn4)cc13)-c1cc3c(c(=O)n1C2)COC(=O)[C@]3(O)CC [Compound 57] shows solubility of 1000 µg/mL or more.
Response: condition met

Query: # check: solubility of CCc1c2c(nc3ccc(OC(=O)OCCOCc4cn(CCO[C@H]5O[C@@H](CO)[C@H](O)[C@@H](O)[C@@H]5O)nn4)cc13)-c1cc3c(c(=O)n1C2)COC(=O)[C@]3(O)CC [Compound 56] is greater than or equal to 1000 µg/mL
Response: condition met
